- assay.info: Pharmacokinetics in Beagle dogs
- Assay type: in vivo
- condition.label: male, Beagle, plasma; dog; IV 1 mg/kg
endpoint.name: AUC(0-inf) (ng·h/mL)
Answers are plain numbers, in ng·h/mL.

INPUT: Please give the measured AUC(0-inf) for this compound: Cc1ccc2cccc(NC(=O)c3cccc(OC(C)C)c3)c2n1
OUTPUT: 96

====

- assay.info: Pharmacokinetics in CD-1 mice
- Assay type: in vivo, mouse
- condition.label: mouse, plasma; CD-1 mice; 2 mg/kg i.v. or 10 mg/kg P.O.
Criterion: AUC strictly less than 30 ng·h/mL. Met: met. Not met: not met.

Example results:
1. Cc1ccc2cccc(NC(=O)c3ccc(N(C)C)cc3)c2n1 : not met
2. Cc1ccc2cccc(NC(=O)c3ccc(C)s3)c2n1 : met
3. CCNc1ccc(C(=O)Nc2cccc3ccc(C)nc23)cc1 : not met

INPUT: Here's an entry: Cc1ccc2cccc(NC(=O)c3cccc(OC(C)C)c3)c2n1 . Is its AUC below 30 ng·h/mL?
OUTPUT: met

INPUT: Here's an entry: Cc1ccc2cccc(NC(=O)c3cc(Br)cs3)c2n1 . Is its AUC below 30 ng·h/mL?
OUTPUT: met

INPUT: Here's an entry: Cc1ccc2cccc(NC(=O)c3ccc(NC(C)C)cc3)c2n1 . Is its AUC below 30 ng·h/mL?
OUTPUT: not met

INPUT: Here's an entry: Cc1ccc2cccc(NC(=O)c3ccc(Br)s3)c2n1 . Is its AUC below 30 ng·h/mL?
OUTPUT: met

INPUT: Here's an entry: Cc1ccc2cccc(NC(=O)c3ccc(OC(C)C)cc3)c2n1 . Is its AUC below 30 ng·h/mL?
OUTPUT: met
